# key: entry, value: IC50
# target_of_assay: urease (Canavalia ensiformis, UniProt P07374)
# Sequence (P07374 whole entry, looked up): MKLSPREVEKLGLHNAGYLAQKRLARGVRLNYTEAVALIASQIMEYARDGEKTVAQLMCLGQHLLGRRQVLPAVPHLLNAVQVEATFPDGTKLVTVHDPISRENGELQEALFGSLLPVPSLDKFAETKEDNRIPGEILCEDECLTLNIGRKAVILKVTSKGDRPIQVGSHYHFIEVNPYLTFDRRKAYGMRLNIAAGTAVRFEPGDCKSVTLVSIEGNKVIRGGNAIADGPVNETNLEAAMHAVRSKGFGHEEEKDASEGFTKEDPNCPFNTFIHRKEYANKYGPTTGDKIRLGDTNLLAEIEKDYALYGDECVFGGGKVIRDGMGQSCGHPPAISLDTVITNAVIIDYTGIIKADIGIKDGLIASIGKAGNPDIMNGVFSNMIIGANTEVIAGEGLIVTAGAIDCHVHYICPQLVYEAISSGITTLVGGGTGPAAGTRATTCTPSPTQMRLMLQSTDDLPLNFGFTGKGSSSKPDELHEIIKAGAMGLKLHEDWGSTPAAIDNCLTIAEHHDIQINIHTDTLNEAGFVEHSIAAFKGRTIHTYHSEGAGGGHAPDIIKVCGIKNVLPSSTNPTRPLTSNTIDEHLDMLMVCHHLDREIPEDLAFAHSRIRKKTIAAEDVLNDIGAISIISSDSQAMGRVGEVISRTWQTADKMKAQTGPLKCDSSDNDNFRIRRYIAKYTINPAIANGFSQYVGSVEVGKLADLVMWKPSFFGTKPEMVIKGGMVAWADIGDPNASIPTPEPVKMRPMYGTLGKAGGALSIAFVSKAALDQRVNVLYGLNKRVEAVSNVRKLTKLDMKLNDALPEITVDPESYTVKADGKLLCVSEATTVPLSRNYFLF
# protocol_text: biochemical

{"compound": "Oc1cc(F)ccc1-c1csc(N2N=C(c3cc(Cl)cnc3Cl)CC2c2nc3ccccc3s2)n1 (stereo not shown) [Compound 7]", "IC50": "19.2 µM"}
{"compound": "COc1ccc(OC)c(-c2csc(N3N=C(c4cc(Cl)cnc4Cl)CC3c3nc4ccccc4s3)n2)c1 (stereo not shown) [Compound 10]", "IC50": "33.7 µM"}
{"compound": "Oc1cc(Cl)cc(Cl)c1-c1csc(N2N=C(c3cc(Cl)cnc3Cl)CC2c2nc3ccccc3s2)n1 (stereo not shown) [Compound 14]", "IC50": "21.8 µM"}
{"compound": "O=[N+]([O-])c1ccc(-c2csc(N3N=C(c4cc(Cl)cnc4Cl)CC3c3nc4ccccc4s3)n2)cc1 (stereo not shown) [Compound 4]", "IC50": "23.3 µM"}
{"compound": "CN(C)c1ccc(-c2csc(N3N=C(c4cc(Cl)cnc4Cl)CC3c3nc4ccccc4s3)n2)cc1 (stereo not shown) [Compound 8]", "IC50": "39.2 µM"}
{"compound": "Cc1ccc(-c2csc(N3N=C(c4cc(Cl)cnc4Cl)CC3c3nc4ccccc4s3)n2)cc1 (stereo not shown) [Compound 3]", "IC50": "33.2 µM"}
{"compound": "Fc1ccc(-c2csc(N3N=C(c4cc(Cl)cnc4Cl)CC3c3nc4ccccc4s3)n2)cc1 (stereo not shown) [Compound 12]", "IC50": "22.3 µM"}
{"compound": "O=[N+]([O-])c1cc(Br)ccc1-c1csc(N2N=C(c3cc(Cl)cnc3Cl)CC2c2nc3ccccc3s2)n1 (stereo not shown) [Compound 1]", "IC50": "41.5 µM"}
{"compound": "O=[N+]([O-])c1ccccc1-c1csc(N2N=C(c3cc(Cl)cnc3Cl)CC2c2nc3ccccc3s2)n1 (stereo not shown) [Compound 5]", "IC50": "32.5 µM"}
{"compound": "FC(F)(F)c1ccc(-c2csc(N3N=C(c4cc(Cl)cnc4Cl)CC3c3nc4ccccc4s3)n2)cc1 (stereo not shown) [Compound 6]", "IC50": "14.3 µM"}
{"compound": "Cc1ccc(C)c(-c2csc(N3N=C(c4cc(Cl)cnc4Cl)CC3c3nc4ccccc4s3)n2)c1 (stereo not shown) [Compound 2]", "IC50": "37.2 µM"}
{"compound": "O=[N+]([O-])c1cc(Cl)ccc1-c1csc(N2N=C(c3cc(Cl)cnc3Cl)CC2c2nc3ccccc3s2)n1 (stereo not shown) [Compound 9]", "IC50": "29.4 µM"}
{"compound": "Clc1cnc(Cl)c(C2=NN(c3nc(-c4cccc(Cl)c4Cl)cs3)C(c3nc4ccccc4s3)C2)c1 (stereo not shown) [Compound 17]", "IC50": "31.3 µM"}

###

# key: entry, value: melting point

{"compound": "Clc1cnc(Cl)c(C2=NN(c3nc(-c4ccc5ccccc5c4)cs3)C(c3nc4ccccc4s3)C2)c1 (centres unmarked)", "melting point": "243 to 244 °C"}
{"compound": "Oc1cc(Cl)cc(Cl)c1-c1csc(N2N=C(c3cc(Cl)cnc3Cl)CC2c2nc3ccccc3s2)n1 (centres unmarked)", "melting point": "238 to 239 °C"}
{"compound": "Cc1cc(-c2csc(N3N=C(c4cc(Cl)cnc4Cl)CC3c3nc4ccccc4s3)n2)cc(C)c1Br (centres unmarked)", "melting point": "221 to 222 °C"}
{"compound": "Oc1cc(F)ccc1-c1csc(N2N=C(c3cc(Cl)cnc3Cl)CC2c2nc3ccccc3s2)n1 (centres unmarked)", "melting point": "228 to 229 °C"}
{"compound": "Cc1ccc(-c2csc(N3N=C(c4cc(Cl)cnc4Cl)CC3c3nc4ccccc4s3)n2)cc1 (centres unmarked)", "melting point": "227 to 228 °C"}
{"compound": "O=[N+]([O-])c1ccccc1-c1csc(N2N=C(c3cc(Cl)cnc3Cl)CC2c2nc3ccccc3s2)n1 (centres unmarked)", "melting point": "224 to 225 °C"}
{"compound": "Fc1ccc(-c2csc(N3N=C(c4cc(Cl)cnc4Cl)CC3c3nc4ccccc4s3)n2)cc1 (centres unmarked)", "melting point": "226 to 227 °C"}
{"compound": "COc1ccc(OC)c(-c2csc(N3N=C(c4cc(Cl)cnc4Cl)CC3c3nc4ccccc4s3)n2)c1 (centres unmarked)", "melting point": "234 to 235 °C"}
{"compound": "Clc1cnc(Cl)c(C2=NN(c3nc(-c4cccc(Cl)c4Cl)cs3)C(c3nc4ccccc4s3)C2)c1 (centres unmarked)", "melting point": "236 to 237 °C"}
{"compound": "O=[N+]([O-])c1ccc(-c2csc(N3N=C(c4cc(Cl)cnc4Cl)CC3c3nc4ccccc4s3)n2)cc1 (centres unmarked)", "melting point": "232 to 233 °C"}
{"compound": "Fc1ccccc1-c1csc(N2N=C(c3cc(Cl)cnc3Cl)CC2c2nc3ccccc3s2)n1 (centres unmarked)", "melting point": "221 to 222 °C"}
{"compound": "O=[N+]([O-])c1cc(Br)ccc1-c1csc(N2N=C(c3cc(Cl)cnc3Cl)CC2c2nc3ccccc3s2)n1 (centres unmarked)", "melting point": "233 to 234 °C"}
{"compound": "Clc1cnc(Cl)c(C2=NN(c3nc(-c4ccc(OCc5ccccc5)cc4)cs3)C(c3nc4ccccc4s3)C2)c1 (centres unmarked)", "melting point": "242 to 243 °C"}
{"compound": "O=[N+]([O-])c1cc(Cl)ccc1-c1csc(N2N=C(c3cc(Cl)cnc3Cl)CC2c2nc3ccccc3s2)n1 (centres unmarked)", "melting point": "230 to 231 °C"}
{"compound": "CN(C)c1ccc(-c2csc(N3N=C(c4cc(Cl)cnc4Cl)CC3c3nc4ccccc4s3)n2)cc1 (centres unmarked)", "melting point": "231 to 232 °C"}
{"compound": "Cc1ccc(C)c(-c2csc(N3N=C(c4cc(Cl)cnc4Cl)CC3c3nc4ccccc4s3)n2)c1 (centres unmarked)", "melting point": "219 to 220 °C"}
{"compound": "FC(F)(F)c1ccc(-c2csc(N3N=C(c4cc(Cl)cnc4Cl)CC3c3nc4ccccc4s3)n2)cc1 (centres unmarked)", "melting point": "225 to 226 °C"}
